Molecular target: JAK1 (Homo sapiens, UniProt P23458)
Sequence (P23458 whole entry): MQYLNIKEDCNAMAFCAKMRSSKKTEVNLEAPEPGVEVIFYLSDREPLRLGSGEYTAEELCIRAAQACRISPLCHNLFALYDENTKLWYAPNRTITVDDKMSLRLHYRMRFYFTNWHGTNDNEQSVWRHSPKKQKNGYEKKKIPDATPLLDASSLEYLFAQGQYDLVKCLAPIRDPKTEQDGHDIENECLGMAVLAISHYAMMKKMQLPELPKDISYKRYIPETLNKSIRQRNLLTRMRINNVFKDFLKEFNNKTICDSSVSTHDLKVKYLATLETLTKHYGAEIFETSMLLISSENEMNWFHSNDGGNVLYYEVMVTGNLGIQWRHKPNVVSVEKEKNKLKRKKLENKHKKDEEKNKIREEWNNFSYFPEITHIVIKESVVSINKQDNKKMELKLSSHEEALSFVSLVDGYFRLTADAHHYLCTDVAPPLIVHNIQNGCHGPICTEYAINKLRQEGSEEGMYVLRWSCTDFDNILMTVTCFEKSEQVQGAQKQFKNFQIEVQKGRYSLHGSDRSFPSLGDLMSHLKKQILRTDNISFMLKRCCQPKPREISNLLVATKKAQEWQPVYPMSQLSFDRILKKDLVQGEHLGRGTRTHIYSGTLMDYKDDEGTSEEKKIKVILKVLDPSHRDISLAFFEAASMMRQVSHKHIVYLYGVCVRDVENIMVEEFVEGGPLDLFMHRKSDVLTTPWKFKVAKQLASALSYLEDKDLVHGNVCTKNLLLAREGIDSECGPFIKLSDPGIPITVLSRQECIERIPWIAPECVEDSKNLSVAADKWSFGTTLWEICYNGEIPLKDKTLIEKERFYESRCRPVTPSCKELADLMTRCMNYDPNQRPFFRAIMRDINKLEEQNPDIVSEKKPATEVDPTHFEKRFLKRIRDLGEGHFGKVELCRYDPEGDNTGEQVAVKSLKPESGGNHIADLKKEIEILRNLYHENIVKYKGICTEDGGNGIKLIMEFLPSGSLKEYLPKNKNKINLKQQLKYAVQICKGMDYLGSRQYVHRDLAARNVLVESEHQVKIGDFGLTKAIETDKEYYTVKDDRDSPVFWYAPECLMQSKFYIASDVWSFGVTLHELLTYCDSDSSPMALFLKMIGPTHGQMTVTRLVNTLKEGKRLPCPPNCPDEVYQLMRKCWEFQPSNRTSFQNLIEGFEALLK
Test: Inhibition of JAK kinase activity, EZ Reader microfluidic phosphorylation of peptide substrate: JAK1
Type: biochemical
Conditions: JAK1 kinase 20 nM; highest final concentration 10 μM, 1:3 serial dilution, 8 points, duplicates
Source text: EZ Reader available from PerkinElmer can be used for detecting the phosphorylation of polypeptide substrates catalyzed by kinases. This device is based on microfluidic separation technology, and can directly detect fluorescence labeled substrates and products. The separation step is achieved in a microfluidic chip by controlling the pressure and electric field intensity. In a kinase experiment, the product conversion rate is generally controlled at 20-30%. […]
measuredAttribute: IC50

query: Given CCCC(=O)N1CC(n2cc(-c3ccnc(Nc4cnn(C)c4)n3)cn2)C1 , respond with its IC50.
result: ≥ 10 µM

query: Given Cn1cc(Nc2nccc(-c3cnn(C4CN(C(=O)CO)C4)c3)n2)cn1 , respond with its IC50.
result: ≥ 10 µM

query: Given Cn1cc(Nc2nccc(-c3ccc(C4(CC#N)CN(C(=O)C5CC5(F)F)C4)cc3)n2)cn1 (stereo not shown) , respond with its IC50.
result: 0.1 to 1 µM

query: Given Cn1cc(Nc2nccc(-c3cnn(C4(CC#N)CN(S(=O)(=O)CC(F)(F)F)C4)c3)n2)cn1 , respond with its IC50.
result: 0.1 to 1 µM

----------
biological target: JAK2 (Homo sapiens, UniProt O60674); experiment: Inhibition of JAK kinase activity, EZ Reader microfluidic phosphorylation of peptide substrate: JAK2; assay type: biochemical; conditions: JAK2 kinase 1 nM; highest final concentration 10 μM, 1:3 serial dilution, 8 points, duplicates
Sequence (O60674 whole entry): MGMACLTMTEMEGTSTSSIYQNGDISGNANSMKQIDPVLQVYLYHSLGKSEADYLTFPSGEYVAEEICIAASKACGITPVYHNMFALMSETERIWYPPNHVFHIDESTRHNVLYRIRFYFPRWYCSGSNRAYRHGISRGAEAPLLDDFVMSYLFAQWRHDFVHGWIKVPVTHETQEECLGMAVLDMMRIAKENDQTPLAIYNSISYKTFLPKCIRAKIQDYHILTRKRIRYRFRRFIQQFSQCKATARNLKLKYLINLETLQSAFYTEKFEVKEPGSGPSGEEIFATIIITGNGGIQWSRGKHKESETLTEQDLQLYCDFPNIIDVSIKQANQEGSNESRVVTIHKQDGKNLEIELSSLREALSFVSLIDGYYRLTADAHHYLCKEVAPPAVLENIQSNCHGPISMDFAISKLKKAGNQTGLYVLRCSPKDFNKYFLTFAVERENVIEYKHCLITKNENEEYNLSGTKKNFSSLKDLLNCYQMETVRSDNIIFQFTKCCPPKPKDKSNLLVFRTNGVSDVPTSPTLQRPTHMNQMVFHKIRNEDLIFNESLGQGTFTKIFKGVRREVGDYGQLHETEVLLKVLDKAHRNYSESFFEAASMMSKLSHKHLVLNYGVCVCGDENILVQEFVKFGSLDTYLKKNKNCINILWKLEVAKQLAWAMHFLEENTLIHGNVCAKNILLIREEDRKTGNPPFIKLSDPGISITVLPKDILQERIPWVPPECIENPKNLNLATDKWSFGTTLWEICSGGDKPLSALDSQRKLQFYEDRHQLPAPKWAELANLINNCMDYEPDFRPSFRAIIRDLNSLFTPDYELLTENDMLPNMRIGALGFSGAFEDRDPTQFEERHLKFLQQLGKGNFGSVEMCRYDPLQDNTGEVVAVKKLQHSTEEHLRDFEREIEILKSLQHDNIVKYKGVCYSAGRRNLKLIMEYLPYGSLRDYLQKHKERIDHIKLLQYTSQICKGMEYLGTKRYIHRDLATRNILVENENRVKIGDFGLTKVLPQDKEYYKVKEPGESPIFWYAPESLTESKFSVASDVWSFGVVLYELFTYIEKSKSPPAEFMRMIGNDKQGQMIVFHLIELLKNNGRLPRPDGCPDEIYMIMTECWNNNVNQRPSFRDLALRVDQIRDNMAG
measuredAttribute: IC50

query: Given CCS(=O)(=O)N1CCC(n2cc(-c3ccnc(Nc4cnn(C)c4)n3)cn2)C1 (stereo not shown) [TDM-180647] , respond with its IC50.
result: 1 to 10 µM

query: Given Cn1cc(Nc2nccc(-c3ccn(C4(CC#N)CN(S(=O)(=O)C5CCOCC5)C4)c3)n2)cn1 [TDM-180855] , respond with its IC50.
result: 0.1 to 1 µM

query: Given Cn1cc(Nc2nccc(-c3ccn(C4(CC#N)CN(C(=O)C5CC5(F)F)C4)c3)n2)cn1 (stereo not shown) [TDM-180776] , respond with its IC50.
result: < 0.1 µM

query: Given Cn1cc(Nc2nccc(-c3cnn(C4(CC#N)CN(C(=O)C5CC5(F)F)C4)c3)n2)cn1 (stereo not shown) [TDM-180726] , respond with its IC50.
result: 0.1 to 1 µM

query: Given Cn1cc(Nc2cc(-c3cnn(C4CN(C(=O)CC#N)C4)c3)ccn2)cn1 [TDM-180641] , respond with its IC50.
result: ≥ 10 µM

query: Given Cn1cc(Nc2nccc(-c3ccn(C4(CC#N)CN(C(=O)C5CC5)C4)c3)n2)cn1 [TDM-180772] , respond with its IC50.
result: 0.1 to 1 µM

query: Given Cn1cc(Nc2nccc(-c3ccn(C4(CC#N)CN(S(=O)(=O)C5CC5)C4)c3)n2)cn1 [TDM-180770] , respond with its IC50.
result: 0.1 to 1 µM

query: Given Cn1cc(Nc2cc(-c3cnn(C4CN(C(=O)C5CC5)C4)c3)ccn2)cn1 [TDM-180637] , respond with its IC50.
result: ≥ 10 µM

query: Given Cn1cc(Nc2nccc(-c3cnn(C4CN(C(=O)C5CC5(F)F)C4)c3)n2)cn1 (stereo not shown) [TDM-180668] , respond with its IC50.
result: ≥ 10 µM

query: Given Cn1cc(Nc2nccc(-c3cnn(C4(CC#N)CN(S(=O)(=O)C5CC5)C4)c3)n2)cn1 [TDM-180766] , respond with its IC50.
result: < 0.1 µM

query: Given CCC(=O)N1CCC(n2cc(-c3ccnc(Nc4cnn(C)c4)n3)cn2)CC1 [TDM-180676] , respond with its IC50.
result: ≥ 10 µM

query: Given Cn1cc(Nc2nccc(-c3cnn(C4(CC#N)CN(C(=O)C5CC5)C4)c3)n2)cn1 [TDM-180753] , respond with its IC50.
result: 1 to 10 µM

query: Given CCCS(=O)(=O)N1CC(n2cc(-c3ccnc(Nc4cnn(C)c4)n3)cn2)C1 [TDM-180666] , respond with its IC50.
result: 1 to 10 µM

query: Given Cn1cc(Nc2nccc(-c3cnn(C4(CC#N)CN(S(=O)(=O)CCC(F)(F)F)C4)c3)n2)cn1 [TDM-180808] , respond with its IC50.
result: 0.1 to 1 µM

query: Given Cn1cc(Nc2nccc(-c3ccn(C4(CC#N)CN(C(=O)CC(F)(F)F)C4)c3)n2)cn1 [TDM-180778] , respond with its IC50.
result: 0.1 to 1 µM

query: Given Cn1cc(Nc2nccc(-c3cnn(C4CCN(C(=O)CC#N)CC4)c3)n2)cn1 [TDM-180680] , respond with its IC50.
result: ≥ 10 µM

query: Given CCS(=O)(=O)N1CC(CC#N)(n2cc(-c3ccnc(Nc4cnn(C)c4)n3)cn2)C1 [TDM-180728] , respond with its IC50.
result: < 0.1 µM

query: Given CCCS(=O)(=O)N1CCC(n2cc(-c3ccnc(Nc4cnn(C)c4)n3)cn2)C1 (stereo not shown) [TDM-180648] , respond with its IC50.
result: 1 to 10 µM

query: Given Cn1cc(Nc2nccc(-c3cnn(C4CN(C(=O)CO)C4)c3)n2)cn1 [TDM-180672] , respond with its IC50.
result: ≥ 10 µM

query: Given Cn1cc(Nc2nccc(-c3cnn(C4CCN(C(=O)CO)CC4)c3)n2)cn1 [TDM-180681] , respond with its IC50.
result: ≥ 10 µM

query: Given C=CCS(=O)(=O)N1CC(CC#N)(n2cc(-c3ccnc(Nc4cnn(C)c4)n3)cn2)C1 [TDM-180800] , respond with its IC50.
result: 0.1 to 1 µM

query: Given Cn1cc(Nc2nccc(-c3cnn(C4CCN(C(=O)CC(F)(F)F)C4)c3)n2)cn1 (stereo not shown) [TDM-180651] , respond with its IC50.
result: 1 to 10 µM

----------
Provide the reported IC50 of each item.
target: Tyk2 (Homo sapiens, UniProt P29597); experiment: Inhibition of JAK kinase activity, EZ Reader microfluidic phosphorylation of peptide substrate: Tyk2; assay type: biochemical; conditions: Tyk2 kinase 1 nM; highest final concentration 10 μM, 1:3 serial dilution, 8 points, duplicates
Sequence (P29597 whole entry): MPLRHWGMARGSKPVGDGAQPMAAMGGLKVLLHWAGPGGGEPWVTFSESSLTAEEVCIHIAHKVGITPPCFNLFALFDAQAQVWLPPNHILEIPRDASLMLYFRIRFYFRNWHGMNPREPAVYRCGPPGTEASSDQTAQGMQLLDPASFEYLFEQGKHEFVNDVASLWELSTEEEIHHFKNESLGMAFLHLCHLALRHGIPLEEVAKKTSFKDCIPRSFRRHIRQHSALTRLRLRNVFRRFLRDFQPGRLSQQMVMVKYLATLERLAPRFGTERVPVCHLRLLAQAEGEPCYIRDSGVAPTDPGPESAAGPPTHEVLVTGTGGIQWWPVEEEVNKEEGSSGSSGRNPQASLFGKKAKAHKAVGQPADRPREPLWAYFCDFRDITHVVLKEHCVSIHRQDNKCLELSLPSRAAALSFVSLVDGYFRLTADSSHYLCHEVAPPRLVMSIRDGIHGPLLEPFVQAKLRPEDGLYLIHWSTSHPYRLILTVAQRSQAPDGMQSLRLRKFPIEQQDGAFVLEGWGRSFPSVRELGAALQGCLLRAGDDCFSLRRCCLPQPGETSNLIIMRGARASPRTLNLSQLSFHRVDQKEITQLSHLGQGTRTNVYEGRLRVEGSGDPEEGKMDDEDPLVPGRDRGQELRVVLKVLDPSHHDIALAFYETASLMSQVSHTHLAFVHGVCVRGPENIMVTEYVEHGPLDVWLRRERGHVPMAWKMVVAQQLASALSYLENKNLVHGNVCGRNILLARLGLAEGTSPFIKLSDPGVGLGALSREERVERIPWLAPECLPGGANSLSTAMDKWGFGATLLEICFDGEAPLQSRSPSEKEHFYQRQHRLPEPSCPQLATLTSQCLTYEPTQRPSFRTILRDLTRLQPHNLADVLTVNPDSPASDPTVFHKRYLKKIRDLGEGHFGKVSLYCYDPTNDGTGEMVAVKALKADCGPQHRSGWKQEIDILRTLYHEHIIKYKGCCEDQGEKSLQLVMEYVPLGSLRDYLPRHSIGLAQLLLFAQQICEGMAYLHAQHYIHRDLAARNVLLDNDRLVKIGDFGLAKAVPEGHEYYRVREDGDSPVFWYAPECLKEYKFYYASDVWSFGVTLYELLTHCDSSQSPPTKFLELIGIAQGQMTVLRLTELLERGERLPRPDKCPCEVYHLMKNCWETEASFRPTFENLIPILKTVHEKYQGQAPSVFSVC

query: Given Cn1cc(Nc2nccc(-c3ccc(C4(CC#N)CN(C(=O)C5CC5(F)F)C4)cc3)n2)cn1 (stereo not drawn) [TDM-180872] , respond with its IC50.
result: 0.1 to 1 µM

query: Given Cn1cc(Nc2nccc(-c3ccn(C4(CC#N)CN(C(=O)CC#N)C4)c3)n2)cn1 [TDM-180775] , respond with its IC50.
result: 0.1 to 1 µM

query: Given CCS(=O)(=O)N1CC(CC#N)(n2cc(-c3ccnc(Nc4cnn(C)c4)n3)cn2)C1 [TDM-180728] , respond with its IC50.
result: 0.1 to 1 µM

query: Given Cn1cc(Nc2nccc(-c3ccn(C4(CC#N)CN(S(=O)(=O)C5CC5)C4)c3)n2)cn1 [TDM-180770] , respond with its IC50.
result: < 0.1 µM

query: Given Cn1cc(Nc2cc(-c3cnn(C4CN(C(=O)CC(F)(F)F)C4)c3)ccn2)cn1 [TDM-180636] , respond with its IC50.
result: ≥ 10 µM

query: Given CC(=O)N1CCN(c2ccc(-c3ccnc(Nc4cnn(C)c4)n3)cc2)CC1 [TDM-180827] , respond with its IC50.
result: 1 to 10 µM
